Could you please report measured phosphorylation enrichment for the items listed next?
Biological target: Fyn (UniProt P06241)
Sequence (P06241 whole entry, looked up): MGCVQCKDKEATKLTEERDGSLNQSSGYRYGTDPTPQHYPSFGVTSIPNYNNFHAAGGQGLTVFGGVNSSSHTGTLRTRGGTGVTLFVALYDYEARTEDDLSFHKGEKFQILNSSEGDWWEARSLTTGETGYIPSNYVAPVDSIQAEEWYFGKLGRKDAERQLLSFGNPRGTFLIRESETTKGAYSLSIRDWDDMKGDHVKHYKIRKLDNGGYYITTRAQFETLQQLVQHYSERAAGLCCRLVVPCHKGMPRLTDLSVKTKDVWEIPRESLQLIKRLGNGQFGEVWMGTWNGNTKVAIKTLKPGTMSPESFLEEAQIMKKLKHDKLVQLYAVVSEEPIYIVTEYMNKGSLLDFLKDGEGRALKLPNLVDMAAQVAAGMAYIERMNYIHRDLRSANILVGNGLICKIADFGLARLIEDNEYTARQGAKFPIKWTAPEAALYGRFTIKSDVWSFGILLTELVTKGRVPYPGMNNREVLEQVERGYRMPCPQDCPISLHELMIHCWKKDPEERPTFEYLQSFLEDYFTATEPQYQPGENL
Test: phosphorylation enrichment, bacterial display (enrichment ratio); higher = better substrate or ligand; peptides without Tyr show the background
Give bare numbers.

- SEQUENCE ENTRY: "GREEFYVHFVG [KAT8_Y90_YF]"
  NUMERIC RESULT: 0.458
- SEQUENCE ENTRY: "SCRENYSDSEE [LEMD3_Y258]"
  NUMERIC RESULT: 0.52
- SEQUENCE ENTRY: "GYCSWYRGWAP [TIMP3_Y195]"
  NUMERIC RESULT: 0.671
- SEQUENCE ENTRY: "GCKNRYDKGKP [THAP1_Y14_D17G]"
  NUMERIC RESULT: 0.434
- SEQUENCE ENTRY: "KHASTYREAAT [DEAF1_Y483]"
  NUMERIC RESULT: 0.322
- SEQUENCE ENTRY: "NTGFFYDLFGG [PTPN11_Y63_D61Y_YF]"
  NUMERIC RESULT: 2.42
- SEQUENCE ENTRY: "SEDSEYYKAFE [CASQ2_Y178]"
  NUMERIC RESULT: 0.621
- SEQUENCE ENTRY: "CYVYYYSYLLK [PTEN_Y178_R173C]"
  NUMERIC RESULT: 0.734
- SEQUENCE ENTRY: "VQNIVYRTASI [CYP39A1_Y102]"
  NUMERIC RESULT: 0.382
- SEQUENCE ENTRY: "IRTIDYRFTVC [IDS_Y497_W502C_YF]"
  NUMERIC RESULT: 0.444

Each sequence below has a recorded value; state its phosphorylation enrichment.
1. IYHLSYHHNCE [PDE6B_Y227_L228H]
2. ETRWKYHFEVV [GCNT3_Y267]
3. VRSTEYPCAGL
4. AQVDTYCRHNF [HLA-DRB1_Y107_A103Q_YF]

Output line:
1: 2.15; 2: 0.439; 3: 0.397; 4: 0.433

Each sequence below has a recorded value; state its phosphorylation enrichment.
1. ERNARYRTPKI [PTK2B_Y699]
2. SVVVPSEPPEV [TP53_Y220_Y220S]
3. TIMTNYNPNFC [ALK_Y1092_D1091N_YF]
4. FRQLQYCPSVE [CTNND2_Y508_YF]
5. QMVGMYAFSFM [AVPR2_Y124_S126F_YF]
6. LPPGTYPSDFT [UNC5B_Y511_A516T]
7. ENELTYYCCKK [CD59_Y86]

Output line:
1. 0.33
2. 0.511
3. 0.545
4. 0.501
5. 1.16
6. 0.82
7. 1.72

* * *

Molecular target: MERTK (UniProt Q12866)
Sequence (Q12866 whole entry, looked up): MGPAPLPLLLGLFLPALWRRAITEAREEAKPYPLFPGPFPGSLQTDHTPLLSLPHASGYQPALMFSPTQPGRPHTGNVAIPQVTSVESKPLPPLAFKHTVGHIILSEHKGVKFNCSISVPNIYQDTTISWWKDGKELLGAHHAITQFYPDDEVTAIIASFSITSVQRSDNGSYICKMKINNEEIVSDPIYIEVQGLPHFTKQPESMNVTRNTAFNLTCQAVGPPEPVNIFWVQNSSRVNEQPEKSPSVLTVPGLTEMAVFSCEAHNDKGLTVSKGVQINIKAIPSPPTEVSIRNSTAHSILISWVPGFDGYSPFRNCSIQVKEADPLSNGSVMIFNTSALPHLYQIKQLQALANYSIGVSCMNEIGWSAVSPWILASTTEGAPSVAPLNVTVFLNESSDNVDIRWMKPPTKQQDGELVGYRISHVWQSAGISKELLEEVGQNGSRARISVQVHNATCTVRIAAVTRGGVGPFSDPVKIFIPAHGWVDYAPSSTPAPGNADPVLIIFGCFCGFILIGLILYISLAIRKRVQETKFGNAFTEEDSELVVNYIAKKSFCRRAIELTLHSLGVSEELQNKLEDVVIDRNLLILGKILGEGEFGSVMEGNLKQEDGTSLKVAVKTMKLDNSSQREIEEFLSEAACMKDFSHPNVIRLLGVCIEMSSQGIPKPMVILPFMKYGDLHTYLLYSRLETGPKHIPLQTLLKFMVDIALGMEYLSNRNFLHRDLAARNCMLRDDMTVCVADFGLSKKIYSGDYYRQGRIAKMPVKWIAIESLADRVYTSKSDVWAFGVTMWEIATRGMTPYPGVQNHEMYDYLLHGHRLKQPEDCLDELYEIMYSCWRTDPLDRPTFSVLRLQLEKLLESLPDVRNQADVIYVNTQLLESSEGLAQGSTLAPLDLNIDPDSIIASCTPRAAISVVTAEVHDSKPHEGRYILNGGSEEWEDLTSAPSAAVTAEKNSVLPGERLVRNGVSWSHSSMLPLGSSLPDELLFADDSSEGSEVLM
Assay: phosphorylation enrichment, bacterial display (enrichment ratio); higher = better substrate or ligand; peptides without Tyr show the background
MEASUREMENT KIND: phosphorylation enrichment
Numbers only.

- SEQUENCE ENTRY: "IVEFAYNDKAI [PUM3_Y259_YF]"
  MEASUREMENT KIND: "phosphorylation enrichment"
  NUMERIC RESULT: 0.494

Each sequence below has a recorded value; state its phosphorylation enrichment.
1. SARFHYLMAEK [LDHB_Y173_R172H]
2. GEDEPYSEPFA [APBA1_Y183_YF]

Output line:
[0.499, 0.493]

* * *

Tested on: c-Src
Test: phosphorylation enrichment, bacterial display (enrichment ratio); higher = better substrate or ligand; peptides without Tyr show the background
Could you please report measured phosphorylation enrichment for the items listed next?
Numbers only.

Each sequence below has a recorded value; state its phosphorylation enrichment.
1. SSAKTYSRMRL [NBEAL2_Y1835_E1833K]
2. TSYSGYRCHRH [NKAPL_Y94_Y96C]
3. WRGMPYGGRGD [TGM1_Y312_R307W]

Output line:
1. 0.427
2. 0.433
3. 0.419

* * *

Could you please report measured phosphorylation enrichment for the items listed next?
Target: Hck (UniProt P08631)
Sequence (P08631 whole entry, looked up): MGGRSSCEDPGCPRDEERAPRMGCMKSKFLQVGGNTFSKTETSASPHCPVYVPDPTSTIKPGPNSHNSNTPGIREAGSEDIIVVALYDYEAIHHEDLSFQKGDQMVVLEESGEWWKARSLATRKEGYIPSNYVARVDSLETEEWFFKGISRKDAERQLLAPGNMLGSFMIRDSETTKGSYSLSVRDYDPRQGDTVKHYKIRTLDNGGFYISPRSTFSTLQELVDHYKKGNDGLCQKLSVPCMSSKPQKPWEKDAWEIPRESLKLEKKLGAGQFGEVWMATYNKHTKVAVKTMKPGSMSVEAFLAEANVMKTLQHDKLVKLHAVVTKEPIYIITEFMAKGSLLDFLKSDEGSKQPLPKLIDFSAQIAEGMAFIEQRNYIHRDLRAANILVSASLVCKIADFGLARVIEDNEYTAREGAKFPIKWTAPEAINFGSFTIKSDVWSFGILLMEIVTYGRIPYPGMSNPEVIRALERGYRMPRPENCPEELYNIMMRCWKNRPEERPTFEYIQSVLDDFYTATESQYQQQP
Experiment: phosphorylation enrichment, bacterial display (enrichment ratio); higher = better substrate or ligand; peptides without Tyr show the background
Numbers only.

Consider the worked cases shown below.
- SEQUENCE ENTRY: "DSASAYADEVK [ETNPPL_Y189]"
  phosphorylation enrichment: 0.653
- SEQUENCE ENTRY: "IFETDYFQKGG [INSR_Y1189_R1191Q_YF]"
  phosphorylation enrichment: 0.473
- SEQUENCE ENTRY: "ADLTEYLSTHF [UQCRC1_Y219_YF]"
  phosphorylation enrichment: 0.604

Note to self: phosphorylation enrichment recorded for HKLSSYEFDFE [BTK_Y40_Y39S_YF] was 0.565

* * *

Could you please report measured phosphorylation enrichment for the items listed next?
System: Fer (mouse)
Test: phosphorylation enrichment, bacterial display (enrichment ratio); higher = better substrate or ligand; peptides without Tyr show the background
One number for each entry.

Consider the worked cases shown below.
- SEQUENCE ENTRY: "LTRDIYKNDYY [ROS1_Y2110_A2106T]"
  TARGET OF ASSAY: "Fer (mouse)"
  phosphorylation enrichment: 1
- SEQUENCE ENTRY: "KNNDGNIDYAE [MCFD2_Y135_Y135N]"
  TARGET OF ASSAY: "Fer (mouse)"
  phosphorylation enrichment: 0.453
- SEQUENCE ENTRY: "LNECHYGALIG [BPGM_Y92_R90C]"
  TARGET OF ASSAY: "Fer (mouse)"
  phosphorylation enrichment: 1.35
- SEQUENCE ENTRY: "EEESCYILHSS [PATJ_Y783]"
  TARGET OF ASSAY: "Fer (mouse)"
  phosphorylation enrichment: 0.926
- SEQUENCE ENTRY: "YRVAGYKTQGG [TIA1_Y383_E384K]"
  TARGET OF ASSAY: "Fer (mouse)"
  phosphorylation enrichment: 0.363
- SEQUENCE ENTRY: "SHRQDYLVGNK [GSTA1_Y147_G144R]"
  TARGET OF ASSAY: "Fer (mouse)"
  phosphorylation enrichment: 0.334
- SEQUENCE ENTRY: "KKFPDYIQIAM [SGMS2_Y59_YF]"
  TARGET OF ASSAY: "Fer (mouse)"
  phosphorylation enrichment: 0.427
- SEQUENCE ENTRY: "PICEGYALPHA [ACTC1_Y171_Y168C]"
  TARGET OF ASSAY: "Fer (mouse)"
  phosphorylation enrichment: 0.577
- SEQUENCE ENTRY: "EIRTQYEAMAS [GFAP_Y242]"
  TARGET OF ASSAY: "Fer (mouse)"
  phosphorylation enrichment: 0.483
- SEQUENCE ENTRY: "AAAAVYTFLPD [MYORG_Y36_M35V]"
  TARGET OF ASSAY: "Fer (mouse)"
  phosphorylation enrichment: 1.85

--- query ---
Note to self: phosphorylation enrichment recorded for PGIRMYRVQFN [LRFN1_Y454_Q455R_YF] was 0.611

* * *

Molecular target: SHP2-C SH2;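 note: peptide library displayed on the E. coli surface as eCPX fusions, selected cells deep-sequenced, score is each peptide's frequency after selection divided by its frequency in the input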
Test: SH2 binding enrichment of the phosphorylated peptide, bacterial display (enrichment ratio); higher = better substrate or ligand; peptides without Tyr show the background
Could you please report measured SH2 binding enrichment for the items listed next?
Answers are plain numbers.

Consider the worked cases shown below.
- SEQUENCE ENTRY: "FFLGKYLQEVL [KLB_Y910_YF]"
  SH2 binding enrichment: 1.71
- SEQUENCE ENTRY: "EWKNNCPRLRE [OPA1_Y582_Y582C]"
  SH2 binding enrichment: 0.571
- SEQUENCE ENTRY: "VCHELYNTIRD [PBRM1_Y54]"
  SH2 binding enrichment: 0.805
- SEQUENCE ENTRY: "IRRWVYPLTPE [EIF2B5_Y319]"
  SH2 binding enrichment: 0.716

Each sequence below has a recorded value; state its SH2 binding enrichment.
1. KDFTKYVAFIE [KDM4B_Y31_N29T_YF]
2. EAEPFYRSLRD [NPHS1_Y1139_YF]
3. NPEACYQRLKK [TK2_Y190_T188A]
4. EQKKFYNATKK [SCN5A_Y1495_M1498T_YF]
5. TVLEPYADPFF [ZC3H18_Y367_YF]
6. LEGAKYVSHGA [ASS1_Y113_R108L]
7. GHLFANDWISI [BEST1_Y227_Y227N_YF]
8. WGLRSYFETSK [MAGED2_Y448_YF]

Output line:
1. 1.79
2. 0.628
3. 0.949
4. 0.729
5. 0.673
6. 0.516
7. 0.708
8. 1.53

Each sequence below has a recorded value; state its SH2 binding enrichment.
1. YDAHNYHPLPV [OAT_Y55_G51D]
2. TKAEKYVNKPK [PLCG1_Y991_A995P]
3. QKMFDYLKEKK [RYR2_Y3780_L3778F]
4. CTTIQYNYMCN [TP53_Y234_H233Q]

Output line:
0.697
1.16
0.738
2.31
